Reference source for all entries: paper PMC7826789

# System: MAP4K2;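 further: KINOMEscan scanMAX binding as percent activity remaining versus control; lower means stronger binding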
# Assay Conditions: Compound Concentration (nM):1000

[
  {
    "Compound": "NS(=O)(=O)c1ccc(N/N=C2\\C(=O)Nc3ccc(-c4cnco4)cc32)cc1 [GW276655]",
    "Percent Control, %": 80
  },
  {
    "Compound": "NS(=O)(=O)c1ccc(N/N=C2\\C(=O)Nc3ccc(Cl)cc32)cc1 [GW280670X]",
    "Percent Control, %": 90
  },
  {
    "Compound": "CCc1ccc(Oc2nccc(-c3c(-c4ccc(F)cc4)ncn3C3CCNCC3)n2)cc1 [SB-242719]",
    "Percent Control, %": 40
  },
  {
    "Compound": "COc1ccccc1-c1cc(/C=C2\\C(=O)Nc3ncc(Br)cc32)cc(Br)c1O [GW442130X]",
    "Percent Control, %": 89
  },
  {
    "Compound": "Cl.O=S1CCN(Cc2ccc(-c3ccc4ncnc(Nc5ccc(OCc6ccccc6)c(F)c5)c4c3)o2)CC1 [GW576924A]",
    "Percent Control, %": 100
  },
  {
    "Compound": "COc1ccc2c(-c3ccnc(Nc4cccc(OC(F)(F)F)c4)n3)cnn2n1 [GW810372X]",
    "Percent Control, %": 94
  },
  {
    "Compound": "COc1cc(C=NNc2ncnc3c2cnn3-c2ccccc2)ccc1O [GW513184X]",
    "Percent Control, %": 89
  },
  {
    "Compound": "CCS(=O)(=O)c1ccc(OC)c(Nc2ncc(-c3cccc(F)c3)o2)c1 [GW621970X]",
    "Percent Control, %": 91
  },
  {
    "Compound": "COc1ccc2[nH]c3c4[nH]c5ccc(OC)cc5c4c4c(c3c2c1)C(=O)NC4=O [GW296115X]",
    "Percent Control, %": 75
  },
  {
    "Compound": "NS(=O)(=O)c1ccc(N/N=C2\\C(=O)Nc3ccc(C(=O)NCc4ccncc4)cc32)cc1 [GW300657X]",
    "Percent Control, %": 84
  },
  {
    "Compound": "NS(=O)(=O)c1ccc(N/N=C2\\C(=O)Nc3ccc(C(=O)NCCc4c[nH]cn4)cc32)cc1 [GW300660X]",
    "Percent Control, %": 71
  },
  {
    "Compound": "C/C(Nc1ccc(S(N)(=O)=O)cc1)=C1/C(=O)Nc2ccccc21 [GW335962X]",
    "Percent Control, %": 49
  },
  {
    "Compound": "CN(C)c1cc2c(Nc3ccc4c(cnn4Cc4ccccc4)c3)ncnc2cn1 [GW282974X]",
    "Percent Control, %": 92
  },
  {
    "Compound": "COc1cc(C)c(N(C)C(=O)CN(C)C)cc1Nc1nc(Nc2cccc(F)c2C(N)=O)c2cc[nH]c2n1 [GSK2219385]",
    "Percent Control, %": 100
  },
  {
    "Compound": "CC1=C(C(=O)Nc2ccc3[nH]ncc3c2)C(c2ccc(Cl)c(Cl)c2)CC(=O)N1 (stereo not shown) [GSK299115A]",
    "Percent Control, %": 79
  },
  {
    "Compound": "COc1cccc(-c2c[nH]c3c(N/N=C/c4ccncc4)ncnc23)c1 [GW814408X]",
    "Percent Control, %": 78
  },
  {
    "Compound": "COc1ccc2cc(-c3c(-c4ccncc4)nc(-c4ccc(S(C)(=O)=O)cc4C)n3C)ccc2c1 [SB-633825]",
    "Percent Control, %": 93
  },
  {
    "Compound": "O=C1Nc2ccc(C(=O)c3ccco3)cc2C1=Cc1cc(Cl)c(O)c(Cl)c1 [GW406108X]",
    "Percent Control, %": 90
  },
  {
    "Compound": "Cl.c1ccc(Cc2nc3ccc(Nc4ncnc5ccccc45)cc3[nH]2)cc1 [GR269666A]",
    "Percent Control, %": 92
  },
  {
    "Compound": "CN1CCN(C(=O)c2ccc(NC(=O)Nc3ccc(N(C)c4ccnc(Nc5ccc(CS(C)(=O)=O)cc5)n4)cc3)cc2)CC1.Cl [GW830263A]",
    "Percent Control, %": 43
  },
  {
    "Compound": "COc1cc(N2CCN(C(C)C)CC2)ccc1Nc1nc(Nc2ccc(F)cc2C(=O)NC[C@@H](O)CO)c2cc[nH]c2n1 [GSK1392956A]",
    "Percent Control, %": 91
  },
  {
    "Compound": "CC(C)COC(=O)c1ccc2c(c1)/C(=C/Nc1ccc(S(N)(=O)=O)cc1)C(=O)N2 [GW416981X]",
    "Percent Control, %": 76
  },
  {
    "Compound": "COc1cc(/C=N/Nc2ncnc3[nH]ncc23)ccc1O [GW578748X]",
    "Percent Control, %": 43
  },
  {
    "Compound": "COc1cc2ncnc(Nc3ccc4c(cnn4Cc4ccccc4)c3)c2cc1OC.Cl [GW282449A]",
    "Percent Control, %": 93
  },
  {
    "Compound": "Nc1ncnc2occ(-c3ccc(NC(=O)Nc4cc(C(F)(F)F)ccc4F)cc3)c12 [GW770249X]",
    "Percent Control, %": 27
  }
]
